Target: full-length human LRH-1 A324R (human, UniProt O00482 1-541, A324R)
Sequence (O00482 whole entry A324R): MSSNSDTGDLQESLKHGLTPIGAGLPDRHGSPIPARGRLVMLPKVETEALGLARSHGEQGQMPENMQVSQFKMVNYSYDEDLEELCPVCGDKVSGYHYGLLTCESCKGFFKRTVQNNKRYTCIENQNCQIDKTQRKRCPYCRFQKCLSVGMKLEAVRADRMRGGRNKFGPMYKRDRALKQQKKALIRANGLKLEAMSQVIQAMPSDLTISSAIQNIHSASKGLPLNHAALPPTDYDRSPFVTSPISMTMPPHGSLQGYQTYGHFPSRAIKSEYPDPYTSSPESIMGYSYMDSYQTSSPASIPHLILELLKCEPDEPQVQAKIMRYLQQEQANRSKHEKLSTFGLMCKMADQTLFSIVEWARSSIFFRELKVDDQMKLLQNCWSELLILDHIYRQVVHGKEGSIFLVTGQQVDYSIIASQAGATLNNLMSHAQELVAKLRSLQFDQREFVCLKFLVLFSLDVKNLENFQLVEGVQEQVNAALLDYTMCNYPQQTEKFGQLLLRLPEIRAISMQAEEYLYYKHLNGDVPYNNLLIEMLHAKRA
Test: fluorescence polarisation
Ends that are not written are not given here.
measured.metric: Kd (nM)
Number only, in nM; omit the unit.

What does the data say about its Kd? Entry: {FAM}-EEPSLLKKLLLAPA [N-terminally FAM-labeled PGC1α co-regulator peptide (740-EEPSLLKKLLLAPA-753)]
1510
